target: UniProt Q07889; assay: hK-RasG12C interaction assay with hSOS1 (HTRF); settings: GST-hK-RasG12C and His-hSOS1, 60 min incubation at 20° C, mean, read-out: K-RasG12C - SOS interaction assay IC50 - [mol/l] (mean)
IC50 values by entry
Parameter: IC50

| Compound | Result Value |
| --- | --- |
| Cc1nc(N[C@H](C)c2cccc(C(F)(F)F)c2C)c2cc(N3CCCS3(=O)=O)cnc2n1 [Example 34] | 13 nM |
| CC(=O)N1CC=C(c2cnc3ncnc(N[C@H](C)c4cccc(C(F)(F)F)c4C)c3c2)CC1 [Example 12] | 4.06 nM |
| CC(=O)N1CC=C(c2cc3c(N[C@H](C)c4cccc(C(F)(F)C(C)(C)O)c4F)nc(C)nc3nc2C)CC1 [Example 65] | 5.72 nM |
| CC(=O)N1C[C@@H]2C[C@H]1CN2c1cnc2nc(C)nc(N[C@H](C)c3cccc(C(F)(F)C(C)(C)O)c3F)c2c1 [Example 50] | 2.93 nM |
| CC(=O)N1CC=C(c2cnc3nc(C)nc(N[C@H](C)c4cccc(C(F)(F)C(C)(C)O)c4F)c3c2)CC1 [Example 46] | 2.7 nM |
| Cc1nc(N[C@H](C)c2cccc(C(F)(F)F)c2C)c2cc(N3CCCS3(=O)=O)c(C)nc2n1 [Example 58] | 15.9 nM |
| CC(=O)N1CC=C(c2cnc3nc(C)nc(N[C@H](C)c4cccc(C(F)(F)F)c4C)c3c2)CC1 [Example 25] | 5.78 nM |

* * *

target: human SOS1 (SOS1) with human K-RasG12C (Homo sapiens (Human), UniProt Q07889); assay: hK-RasG12C interaction assay with hSOS1 (HTRF); conditions: GST-hK-RasG12C and His-hSOS1, 60 min incubation at 20° C, mean, read-out: K-RasG12C - SOS interaction assay IC50 - [mol/l] (mean)
Sequence (Q07889 564-1049): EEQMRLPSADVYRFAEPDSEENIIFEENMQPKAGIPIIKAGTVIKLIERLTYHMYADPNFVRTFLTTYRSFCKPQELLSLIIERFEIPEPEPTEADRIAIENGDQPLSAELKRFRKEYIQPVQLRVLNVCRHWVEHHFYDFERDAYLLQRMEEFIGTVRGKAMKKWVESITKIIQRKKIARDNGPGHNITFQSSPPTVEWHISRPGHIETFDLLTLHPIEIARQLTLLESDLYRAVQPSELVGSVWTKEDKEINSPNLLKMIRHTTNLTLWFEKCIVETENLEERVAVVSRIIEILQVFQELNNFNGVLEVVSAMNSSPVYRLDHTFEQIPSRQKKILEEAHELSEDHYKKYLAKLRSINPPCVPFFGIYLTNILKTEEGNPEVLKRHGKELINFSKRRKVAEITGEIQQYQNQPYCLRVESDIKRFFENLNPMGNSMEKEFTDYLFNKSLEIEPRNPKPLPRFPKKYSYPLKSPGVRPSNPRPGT
pIC50: −log10 of the molar value.

| Compound | pIC50 |
| --- | --- |
| CC(=O)N1CCC(c2cnc3nc(C)nc(N[C@H](C)c4cccc(C(F)F)c4F)c3c2)CC1 | 8.07 |
| COc1cnc2nc(C)nc(N[C@H](C)c3cccc(C(F)(F)F)c3C)c2c1 | 7.18 |
| CC(=O)N[C@@H]1CCN(c2cnc3nc(C)nc(N[C@H](C)c4cccc(C(F)(F)C(C)(C)O)c4F)c3c2)C1 | 8.35 |
| CC(=O)N1CC(c2cnc3nc(C)nc(N[C@H](C)c4cccc(C(F)(F)F)c4C)c3c2)C1 | 7.79 |
| Cc1nc(N[C@H](C)c2cccc(C(F)(F)F)c2C)c2cc(N3CC4(CN(C(N)=O)C4)C3)cnc2n1 | 8.00 |
| CC(=O)N1CC2(C1)CN(c1cnc3nc(C)nc(N[C@H](C)c4cccc(C(F)(F)C(C)(C)O)c4F)c3c1)C2 | 8.45 |
| CC(=O)N1CC=C(c2cnc3nc(C)nc(N[C@H](C)c4cccc(C(F)(F)F)c4C)c3c2)C1 | 7.42 |
| C[C@@H](Nc1ncnc2ncc(N3CCN(C)CC3)cc12)c1cccc(C(F)(F)F)c1 | 7.86 |
| CC(=O)N1C[C@H]2C[C@@H]1CN2c1cnc2nc(C)nc(N[C@H](C)c3cccc(C(F)(F)C(C)(C)O)c3F)c2c1 | 8.01 |
| COc1nc2nc(C)nc(N[C@H](C)c3cccc(C(F)(F)F)c3C)c2cc1N1CC2(CN(C(C)=O)C2)C1 | 6.46 |
| CC(=O)N1CC2(CC=C(c3cnc4nc(C)nc(N[C@H](C)c5cccc(C(F)(F)F)c5C)c4c3)CC2)C1 | 8.10 |
| CC(=O)N1CC2(C1)CN(c1cc3c(N[C@H](C)c4cccc(C(F)(F)C(C)(C)O)c4F)nc(C)nc3nc1C)C2 | 5.47 |
| COc1cc2c(N[C@H](C)c3cccc(C(F)(F)F)c3C)nc(C)nc2nc1C | 7.33 |
| Cc1nc(N[C@H](C)c2cccc(C(F)(F)F)c2C)c2cc(Br)cnc2n1 | 6.60 |
| Cc1nc(N[C@H](C)c2cccc(C(F)(F)F)c2C)c2cc(N3CC4(CN(C(=O)OC(C)(C)C)C4)C3)cnc2n1 | 6.74 |
| CC(=O)N1CCC(c2cc3c(N[C@H](C)c4cccc(C(F)(F)C(C)(C)O)c4F)nc(C)nc3nc2C)=C(C)C1 | 7.84 |
| CC(=O)N1C[C@@H]2C[C@H]1CN2c1cc2c(N[C@H](C)c3cccc(C(F)(F)C(C)(C)O)c3F)nc(C)nc2nc1C | 8.36 |
| CC(=O)N1CCC(c2cnc3ncnc(N[C@H](C)c4cccc(C(F)(F)F)c4)c3c2)CC1 | 7.19 |
| Cc1nc(N[C@H](C)c2cccc(C(F)(F)C(C)(C)O)c2F)c2cc(N3CCN(C)CC3)cnc2n1 | 8.35 |
| Cc1nc(N[C@H](C)c2cccc(C(F)(F)F)c2C)c2cc(N3CCN(C)CC3)cnc2n1 | 7.97 |
| CC(=O)N1CCC(c2cnc3nc(C)nc(N[C@H](C)c4cccc(C(F)(F)F)c4C)c3c2)C1 (mixture of isomers) | 7.92 |
| CC(=O)N1CCN(c2cnc3ncnc(N[C@H](C)c4cccc(C(F)(F)F)c4C)c3c2)CC1 | 8.45 |
| C[C@@H](Nc1ncnc2ncc(Br)cc12)c1cccc(C(F)(F)F)c1 | 6.39 |
| Cc1nc(N[C@H](C)c2cccc(C(F)(F)F)c2C)c2cc(N(C)S(C)(=O)=O)cnc2n1 | 7.55 |
| CC(=O)N1CCC(c2cc3c(N[C@H](C)c4cccc(C(F)F)c4F)nc(C)nc3nc2C)CC1 | 8.01 |
| CC(=O)N[C@@H]1CCN(c2cnc3ncnc(N[C@H](C)c4cccc(C(F)(F)F)c4)c3c2)C1 | 7.47 |
| Cc1nc(N[C@H](C)c2cccc(C(F)(F)C(C)(C)O)c2F)c2cc(N3CCCS3(=O)=O)c(C)nc2n1 | 8.14 |
| CC(=O)N1CCN(c2cnc3nc(C)nc(N[C@H](C)c4cccc(C(F)(F)F)c4C)c3c2)CC1 | 8.11 |
| CC(=O)N1CCN(c2cnc3nc(C)nc(N[C@H](C)c4cccc(C(F)(F)F)c4C)c3c2)C(=O)C1 | 8.60 |
| CC(=O)N1CCN(c2cc3c(N[C@H](C)c4cccc(C(F)(F)C(C)(C)O)c4F)nc(C)nc3nc2C)CC1 | 8.21 |

* * *

# key: entry, value: IC50
target: human SOS1 (SOS1) with human K-RasG12C (Homo sapiens (Human), UniProt Q07889); assay: hK-RasG12C interaction assay with hSOS1 (HTRF); settings: GST-hK-RasG12C and His-hSOS1, 60 min incubation at 20° C, mean, read-out: K-RasG12C - SOS interaction assay IC50 - [mol/l] (mean)

| Compound | Endpoint Unit | IC50 |
| --- | --- | --- |
| CC(=O)N1CC=C(c2cnc3nc(C)nc(N[C@H](C)c4cccc(C(F)(F)F)c4C)c3c2)CC1 [Example 26] | nM | 5.75 |
| CC(=O)N1CC=C(c2cc3c(N[C@H](C)c4cccc(C(F)(F)F)c4C)nc(C)nc3nc2C(F)(F)F)CC1 | nM | 23 |
| COc1nc2nc(C)nc(N[C@H](C)c3cccc(C(F)(F)F)c3C)c2cc1C1CCN(C(C)=O)CC1 | nM | 805 |
| CC(=O)N1CC=C(c2cnc3nc(C)nc(N[C@H](C)c4cccc(C(F)F)c4F)c3c2)CC1 | nM | 5.2 |
| CC(=O)N1CC2(C1)CN(c1cc3c(N[C@H](C)c4cccc(C(F)(F)C(C)(C)O)c4F)nc(C)nc3nc1C(F)(F)F)C2 | nM | 5.47 |
| CC(=O)N1CC=C(c2cnc3ncnc(N[C@H](C)c4cccc(C(F)(F)F)c4)c3c2)CC1 | nM | 4.24 |
| CC(=O)N1CCN(c2cc3c(N[C@H](C)c4cccc(C(F)(F)F)c4C)nc(C)nc3nc2C)C(=O)C1 | nM | 2.93 |

* * *

# IC50 listing for each entry below
target: human SOS1 (SOS1) with human K-RasG12C (Homo sapiens (Human), UniProt Q07889); assay: hK-RasG12C interaction assay with hSOS1 (HTRF); conditions: GST-hK-RasG12C and His-hSOS1, 60 min incubation at 20° C, mean, read-out: K-RasG12C - SOS interaction assay IC50 - [mol/l] (mean)
Parameter: IC50 (nM)

| Compound | Parameter | Result Value |
| --- | --- | --- |
| CC(=O)N1CC[N+]([O-])(c2cnc3nc(C)nc(N[C@H](C)c4cccc(C(F)(F)F)c4C)c3c2)CC1 [Example 36] | IC50 | 6.46 |
| CC(=O)N1CC2(C1)CN(c1cnc3nc(C)nc(N[C@H](C)c4cccc(C(F)F)c4F)c3c1)C2 [Example 29] | IC50 | 25.6 |
| CC(=O)N1CC2(C1)CN(c1cc3c(N[C@H](C)c4cccc(C(F)F)c4F)nc(C)nc3nc1C)C2 [Example 37] | IC50 | 8.47 |
| CC(=O)N1CCN(c2cnc3ncnc(N[C@H](C)c4cccc(C(F)(F)F)c4)c3c2)CC1 [Example 4] | IC50 | 16.3 |

Cited source: patent US20230357239A1
